tested on: HDQ-P1; test: normalised response (% of control), CellTiter-Glo; higher = more viable cells (100 = DMSO, 0 = benzethonium chloride kill control); settings: incubation time: 72 h
Provide the reported normalised response of each item.
Give your result in % as a bare value.

Supply reported normalised response belonging to this compound: OC[C@H]1O[C@@H](n2cnc3c2N=CNC[C@H]3O)C[C@@H]1O [Pentostatin] (100 nM)
99

Could you please provide reported normalised response for Cc1ccc(F)c(NC(=O)Nc2ccc(-c3cccc4[nH]nc(N)c34)cc2)c1 [Linifanib] (10 nM) ? Thanks!
97.3

Give me measured normalised response, please, for this compound: C=CC[C@@H]1/C=C(\C)C[C@H](C)C[C@H](OC)[C@H]2O[C@@](O)(C(=O)C(=O)N3CCCC[C@H]3C(=O)O[C@H](/C(C)=C/[C@@H]3CC[C@@H](O)[C@H](OC)C3)[C@H](C)[C@@H](O)CC1=O)[C@H](C)C[C@@H]2OC [Tacrolimus] (100 nM)
97.7

Name the recorded normalised response of the compound listed here: CC[C@]1(O)C[C@@H]2CN(CCc3c([nH]c4ccccc34)[C@@](C(=O)OC)(c3cc4c(cc3OC)N(C)[C@H]3[C@@](O)(C(=O)OC)[C@H](OC(C)=O)[C@]5(CC)C=CCN6CC[C@]43[C@@H]65)C2)C1 [Vinblastine] (10 nM)
76.1

Check the records and state normalised response for COc1cc(Nc2ncc3c(n2)-c2ccc(Cl)cc2C(c2c(F)cccc2OC)=NC3)ccc1C(=O)O [Alisertib] (100 nM)
87
